observed property: IC50 (nM)
Write the answer as a number in nM, unit excluded.

Item `COc1cc(N2CCC(N(C)C)CC2)ccc1Nc1ncc(Cl)c(Nc2ccccc2P(C)(C)=O)n1` ; assay system Proto-oncogene tyrosine-protein kinase ROS (Homo sapiens, UniProt P08922); IC50 reported as 1.9

----------
# study target: UniProt Q9UM73
# Sequence (Q9UM73 whole entry): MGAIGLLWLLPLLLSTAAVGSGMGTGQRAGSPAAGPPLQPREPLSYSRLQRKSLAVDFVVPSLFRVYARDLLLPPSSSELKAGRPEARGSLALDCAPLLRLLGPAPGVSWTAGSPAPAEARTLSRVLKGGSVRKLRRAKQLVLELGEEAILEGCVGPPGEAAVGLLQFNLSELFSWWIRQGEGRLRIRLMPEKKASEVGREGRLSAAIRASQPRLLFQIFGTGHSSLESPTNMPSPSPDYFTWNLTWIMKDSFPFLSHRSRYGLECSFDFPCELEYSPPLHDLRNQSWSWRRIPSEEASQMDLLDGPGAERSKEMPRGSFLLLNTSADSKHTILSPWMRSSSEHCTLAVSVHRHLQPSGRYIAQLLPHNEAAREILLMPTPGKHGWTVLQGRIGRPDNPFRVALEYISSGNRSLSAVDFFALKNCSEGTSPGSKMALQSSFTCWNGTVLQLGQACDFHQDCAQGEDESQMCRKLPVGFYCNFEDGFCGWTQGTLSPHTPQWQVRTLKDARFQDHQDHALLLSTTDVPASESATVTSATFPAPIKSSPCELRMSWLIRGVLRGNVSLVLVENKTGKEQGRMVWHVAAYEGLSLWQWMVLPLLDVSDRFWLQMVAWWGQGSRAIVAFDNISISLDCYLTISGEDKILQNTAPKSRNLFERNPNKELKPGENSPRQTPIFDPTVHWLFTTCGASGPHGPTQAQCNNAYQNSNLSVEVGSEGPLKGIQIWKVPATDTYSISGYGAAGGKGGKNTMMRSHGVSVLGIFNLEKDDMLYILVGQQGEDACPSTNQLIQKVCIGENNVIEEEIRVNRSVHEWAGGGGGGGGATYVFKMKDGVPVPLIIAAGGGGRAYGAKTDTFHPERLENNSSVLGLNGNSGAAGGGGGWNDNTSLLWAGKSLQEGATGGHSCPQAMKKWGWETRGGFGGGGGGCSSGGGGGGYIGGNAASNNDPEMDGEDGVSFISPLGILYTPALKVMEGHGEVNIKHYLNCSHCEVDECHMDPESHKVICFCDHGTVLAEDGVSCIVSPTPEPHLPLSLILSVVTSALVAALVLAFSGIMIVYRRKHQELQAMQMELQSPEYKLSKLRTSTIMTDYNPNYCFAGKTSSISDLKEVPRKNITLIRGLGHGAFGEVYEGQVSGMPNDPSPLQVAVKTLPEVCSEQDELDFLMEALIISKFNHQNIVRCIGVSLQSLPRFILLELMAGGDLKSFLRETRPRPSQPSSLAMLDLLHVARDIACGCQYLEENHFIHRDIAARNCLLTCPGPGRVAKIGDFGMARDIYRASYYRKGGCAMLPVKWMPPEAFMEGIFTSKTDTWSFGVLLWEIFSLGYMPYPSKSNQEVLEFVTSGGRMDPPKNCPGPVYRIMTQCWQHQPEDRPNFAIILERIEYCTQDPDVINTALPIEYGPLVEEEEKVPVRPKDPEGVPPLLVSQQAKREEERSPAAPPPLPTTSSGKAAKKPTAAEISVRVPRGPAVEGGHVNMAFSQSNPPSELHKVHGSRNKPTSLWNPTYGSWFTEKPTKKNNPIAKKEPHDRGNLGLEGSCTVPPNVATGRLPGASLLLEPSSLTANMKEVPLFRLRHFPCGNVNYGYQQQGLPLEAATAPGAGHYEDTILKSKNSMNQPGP
observed property: IC50 (pM)
Return type: number; implicit unit pM.

Record `Cc1cc(O)cc(-c2nn(CC#N)cc2-c2cc(NC[C@H](C)O)nc(-c3cccnc3)n2)c1` , field IC50: 600

----------
# study target: Proto-oncogene tyrosine-protein kinase ROS (Homo sapiens)
# test method notes: Inhibition of ROS1 (unknown origin) by HotSpot assay
Please respond with reported IC50 for every item in the list.
Form entry: value (µM) — number only.

In plain terms, `COc1ccc(-c2cc(-c3c[nH]nc3-c3cc(C)cc(OC)c3)ccn2)cc1` has a documented IC50 of 1.25

Looking up `COc1cc(C)cc(-c2c(-c3ccnc(-c4ccc(NC(C)=O)cc4)c3)cnn2CC#N)c1` , I see its IC50 listed as 6.25

----------
Please respond with reported IC50 for every item in the list.
# study target: Proto-oncogene tyrosine-protein kinase ROS (Homo sapiens, UniProt P08922)
# Sequence (P08922 whole entry): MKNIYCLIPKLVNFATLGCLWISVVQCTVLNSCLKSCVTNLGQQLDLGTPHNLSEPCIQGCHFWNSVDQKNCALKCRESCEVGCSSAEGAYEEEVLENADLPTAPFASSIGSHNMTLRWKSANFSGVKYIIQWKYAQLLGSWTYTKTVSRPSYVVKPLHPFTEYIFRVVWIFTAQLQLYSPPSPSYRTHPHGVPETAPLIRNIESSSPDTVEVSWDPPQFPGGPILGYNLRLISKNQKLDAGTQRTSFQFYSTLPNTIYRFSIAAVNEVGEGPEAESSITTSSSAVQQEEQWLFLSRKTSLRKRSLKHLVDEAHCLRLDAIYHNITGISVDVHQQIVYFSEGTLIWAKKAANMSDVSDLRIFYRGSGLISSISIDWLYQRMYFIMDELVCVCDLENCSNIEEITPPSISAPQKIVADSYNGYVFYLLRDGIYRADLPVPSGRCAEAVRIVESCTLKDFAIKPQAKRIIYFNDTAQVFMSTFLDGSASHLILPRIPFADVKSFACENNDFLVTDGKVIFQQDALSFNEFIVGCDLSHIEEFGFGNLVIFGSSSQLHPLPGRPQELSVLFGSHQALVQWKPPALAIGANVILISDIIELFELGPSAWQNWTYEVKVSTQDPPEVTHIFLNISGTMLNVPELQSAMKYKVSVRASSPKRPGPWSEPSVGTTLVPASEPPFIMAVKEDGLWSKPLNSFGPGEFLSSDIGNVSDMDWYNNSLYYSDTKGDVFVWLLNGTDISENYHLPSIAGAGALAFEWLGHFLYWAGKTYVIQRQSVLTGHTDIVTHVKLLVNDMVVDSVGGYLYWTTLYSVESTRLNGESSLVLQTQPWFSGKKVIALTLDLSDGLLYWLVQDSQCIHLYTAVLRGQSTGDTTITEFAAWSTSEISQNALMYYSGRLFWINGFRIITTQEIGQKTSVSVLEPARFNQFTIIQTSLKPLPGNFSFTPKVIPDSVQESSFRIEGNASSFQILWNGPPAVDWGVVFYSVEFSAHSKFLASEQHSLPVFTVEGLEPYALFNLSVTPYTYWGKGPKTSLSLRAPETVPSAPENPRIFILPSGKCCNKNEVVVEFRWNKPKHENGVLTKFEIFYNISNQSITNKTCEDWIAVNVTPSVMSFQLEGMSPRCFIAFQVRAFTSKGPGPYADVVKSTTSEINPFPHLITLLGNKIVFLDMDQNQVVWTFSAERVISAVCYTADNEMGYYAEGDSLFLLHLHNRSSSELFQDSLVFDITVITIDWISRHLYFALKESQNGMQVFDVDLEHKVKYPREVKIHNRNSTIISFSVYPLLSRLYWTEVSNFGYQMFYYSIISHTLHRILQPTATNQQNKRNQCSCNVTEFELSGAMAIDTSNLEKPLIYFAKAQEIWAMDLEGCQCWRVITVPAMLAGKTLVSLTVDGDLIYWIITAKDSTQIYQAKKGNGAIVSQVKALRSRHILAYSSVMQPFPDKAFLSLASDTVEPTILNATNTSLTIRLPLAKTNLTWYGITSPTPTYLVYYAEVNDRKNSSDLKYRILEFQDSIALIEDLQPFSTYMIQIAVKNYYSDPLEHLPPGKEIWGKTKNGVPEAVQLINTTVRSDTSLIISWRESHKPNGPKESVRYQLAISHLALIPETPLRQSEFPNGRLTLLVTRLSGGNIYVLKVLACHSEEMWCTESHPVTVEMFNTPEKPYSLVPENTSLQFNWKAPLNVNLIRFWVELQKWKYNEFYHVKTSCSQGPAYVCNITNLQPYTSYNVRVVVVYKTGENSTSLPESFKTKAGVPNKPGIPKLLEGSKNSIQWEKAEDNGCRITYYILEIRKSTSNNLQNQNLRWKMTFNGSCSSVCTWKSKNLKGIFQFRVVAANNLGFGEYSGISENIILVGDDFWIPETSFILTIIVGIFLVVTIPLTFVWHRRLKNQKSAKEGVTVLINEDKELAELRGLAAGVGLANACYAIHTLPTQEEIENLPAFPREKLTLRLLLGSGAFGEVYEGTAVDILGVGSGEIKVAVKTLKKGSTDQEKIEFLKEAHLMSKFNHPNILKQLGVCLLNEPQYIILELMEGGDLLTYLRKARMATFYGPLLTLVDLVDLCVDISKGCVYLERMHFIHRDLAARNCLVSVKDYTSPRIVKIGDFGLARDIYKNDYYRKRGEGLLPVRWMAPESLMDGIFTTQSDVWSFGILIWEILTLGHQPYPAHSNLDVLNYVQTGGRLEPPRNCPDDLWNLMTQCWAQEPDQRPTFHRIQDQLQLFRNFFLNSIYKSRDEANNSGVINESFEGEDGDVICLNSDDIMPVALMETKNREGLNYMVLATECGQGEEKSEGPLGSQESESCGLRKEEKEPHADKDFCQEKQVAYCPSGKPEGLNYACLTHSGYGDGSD
# output: bare number, implied unit µM

The compound listed as `Cc1cc(O)cc(-c2nn(CC#N)cc2-c2cc(NCCN3CCOCC3)nc(-c3cccnc3)n2)c1` has a reported IC50 of 0.478

Form: compound = `Cc1cc(O)cc(-c2nn(CC#N)cc2-c2cc(NCCCN3CCOCC3)nc(-c3cccnc3)n2)c1` ; IC50 = 0.183

get_value(item= `COCCCNc1cc(-c2cnc(C)nc2-c2ccc(F)cc2Cl)nc(-c2cccnc2)n1` , readout=IC50) returns 1.33

IC50 reading for `Cc1cc(O)cc(-c2nn(CC#N)cc2-c2cc(NCCCCO)nc(-c3cccnc3)n2)c1` : 0.024
